study.target: AKT2 (Homo sapiens, UniProt P31751)
Construct: expressed in transfected cells; host or cells: HEK293
Sequence (P31751 whole entry): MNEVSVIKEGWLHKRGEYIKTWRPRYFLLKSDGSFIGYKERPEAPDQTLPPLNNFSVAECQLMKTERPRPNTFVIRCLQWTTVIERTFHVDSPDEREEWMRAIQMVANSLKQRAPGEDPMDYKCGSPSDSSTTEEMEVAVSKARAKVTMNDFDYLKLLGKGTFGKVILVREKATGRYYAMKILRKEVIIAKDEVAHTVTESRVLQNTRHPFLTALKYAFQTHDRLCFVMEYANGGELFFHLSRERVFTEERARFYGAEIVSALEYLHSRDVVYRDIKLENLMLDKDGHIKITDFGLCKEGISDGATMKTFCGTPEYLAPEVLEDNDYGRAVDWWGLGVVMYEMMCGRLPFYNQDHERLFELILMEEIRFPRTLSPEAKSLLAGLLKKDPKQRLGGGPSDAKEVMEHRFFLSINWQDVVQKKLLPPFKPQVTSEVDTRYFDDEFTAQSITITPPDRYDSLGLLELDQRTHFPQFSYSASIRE
measurement.protocol: Live cell AKT2 target engagement by NanoBRET competitive probe displacement in HEK293 cells
Type: binding
measurement.conditions: NanoBRET live cell target engagement, HEK293 cells, 2 h at 37° C.; read-out: AKT2 IC50
value.kind: IC50

1. COc1cc(C(=O)N[C@H]2CCc3cc(-n4c(-c5cccnc5N)nc5ccc(-n6cccn6)nc54)ccc32)ccc1F
0.305 µM
2. Nc1ncccc1-c1nc2ccc(-n3cccn3)nc2n1-c1ccc2c(c1)CC[C@@H]2NC(=O)c1ccc(F)cc1
0.351 µM
3. Cc1ncccc1CN[C@H]1CCc2cc(-n3c(-c4cccnc4N)nc4ccc(-n5cccn5)nc43)ccc21
0.576 µM
4. Cc1ncccc1C(=O)N[C@H]1CCc2cc(-n3c(-c4cccnc4N)nc4ccc(N5CCOCC5)nc43)ccc21
1.11 µM
